- Target under test: CDK11B/Cyclin L2 (Homo sapiens, UniProt P21127)
- Sequence (P21127 1-782 isoform P21127-2): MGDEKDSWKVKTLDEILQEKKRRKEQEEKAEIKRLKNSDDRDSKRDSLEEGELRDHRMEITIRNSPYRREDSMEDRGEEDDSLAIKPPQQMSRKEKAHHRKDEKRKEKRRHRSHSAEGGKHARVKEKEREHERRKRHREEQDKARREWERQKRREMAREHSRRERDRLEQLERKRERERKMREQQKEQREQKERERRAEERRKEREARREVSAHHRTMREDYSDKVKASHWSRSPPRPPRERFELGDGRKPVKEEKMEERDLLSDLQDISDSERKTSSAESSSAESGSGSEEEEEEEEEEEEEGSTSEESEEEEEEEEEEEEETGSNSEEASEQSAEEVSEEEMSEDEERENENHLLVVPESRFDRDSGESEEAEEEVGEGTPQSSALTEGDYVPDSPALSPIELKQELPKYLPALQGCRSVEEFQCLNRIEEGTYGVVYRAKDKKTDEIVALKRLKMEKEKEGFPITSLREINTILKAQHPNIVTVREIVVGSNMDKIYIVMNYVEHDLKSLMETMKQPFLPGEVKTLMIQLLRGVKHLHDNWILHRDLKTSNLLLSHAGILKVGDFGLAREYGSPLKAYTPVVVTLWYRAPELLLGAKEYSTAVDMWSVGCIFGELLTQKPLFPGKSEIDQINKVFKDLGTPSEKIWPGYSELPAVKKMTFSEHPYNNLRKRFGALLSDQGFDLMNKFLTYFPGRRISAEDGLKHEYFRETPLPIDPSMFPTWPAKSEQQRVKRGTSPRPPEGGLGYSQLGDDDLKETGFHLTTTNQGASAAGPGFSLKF
- Procedure text: NanoBRET live-cell target engagement, CDK11B-NanoLuc/Cyclin L2 in HEK-293
- Type: binding
- Study conditions: CDK11b/L2; average (± SEM where n=3); read-out: IC50
Below, each entry is listed with its recorded pIC50.
Scale: negative log10 of molar concentration, which is what pIC50 denotes.

Examples from the recorded data:
[[record]]
compound = "COc1ccc(F)cc1-c1cc(NC(=O)C2CCCNC2)ncc1Cl (stereo not shown)"
reported = 7.77

[[record]]
compound = "CC(C)c1cnn2c(NCc3ccccc3-n3cccn3)nc(OC3CCCNC3)nc12 (stereo not shown)"
reported = 6.12

[[record]]
compound = "CS(=O)(=O)N1CCC(NC(=O)c2[nH]ncc2NC(=O)c2c(Cl)cccc2Cl)CC1"
reported = 7.43


Next compound, please.
Give the observed pIC50 of `CC(C)c1c2cc(-c3ccnc(N[C@H]4CC[C@H](NC5CCOCC5)CC4)n3)ccc2nn1C` for CDK11B/Cyclin L2 (Homo sapiens, UniProt P21127).
7.62
